Test system: WT cell line SK-BR-3
Assay: Phospho-AKT (Ser473) Inhibition Assay (HTRF), SK-BR-3
Type: cell-based
Settings: Homo sapiens; SK-BR-3, 1 hour treatment; read-out: p-AKT Inhibition assay (S473) IC50 SK-BR-3
Quick reference for pIC50 among some compounds
Expect pIC50 as a plain number equal to -log10 of the molar concentration.

The following compounds have reported results that may help.
COMPOUND	pIC50
COc1ccc(-c2cc3c(C(C)Nc4ccccc4C(=O)O)cc(C)cc3c(=O)n2C)cc1 (centres unmarked) [Example 14]	5.69
Cc1cc(C(C)Nc2ccccc2C(=O)O)c2cc(-c3cccc(C(C)(C)C#N)c3)n(C)c(=O)c2c1 (centres unmarked) [Example 5]	5.34

From here, focus on the item given below.
Provide the reported pIC50 (system: WT cell line SK-BR-3) for Cc1cc(C(C)Nc2ccccc2C(=O)O)c2cc(-c3ccccc3)n(C)c(=O)c2c1 (centres unmarked) [Example 1] 5.68
